Entry source: paper PMC8836147

# Test system: B. xylophilus
# Measurement notes: microbe, parasite or virus in culture
# Condition info: Bursaphelenchus xylophilus, 48 h, read-out: Corrected Mortality Rate ± SD (%) B. xylophilus
# mortality at 200 µg/mL per entry
Reported endpoint: mortality at 200 µg/mL (%)

O=C(Nc1ccc(Cl)cc1Cl)c1nc(-c2ccc(Br)nc2)no1 [Compound F20] :: 41.2
O=C(NCCc1ccccn1)c1nc(-c2ncc(C(F)(F)F)cc2Cl)no1 [Compound F21] :: 7.1
O=C(Nc1ccc(Cl)cc1Cl)c1nc(-c2ccc(Cl)cc2)no1 [Compound F12] :: 20.8
O=C(NCCc1ccccn1)c1nc(-c2cccs2)no1 [Compound F13] :: 9.1
O=C(NCCc1ccccn1)c1nc(-c2ccccc2)no1 [Compound F1] :: 6.1

----------
# System: A. besseyi
# Measurement notes: microbe, parasite or virus in culture
# Condition info: Aphelenchoides besseyi, 48 h, read-out: Corrected Mortality Rate ± SD (%) A. besseyi
# Method: M. incognita (parasitic on tomato plants), A. besseyi (potato dextrose agar–Botrytis cinerea breeding), B. xylophilus (potato dextrose agar–Botrytis cinerea breeding), and C. elegans (nematode growth medium–inactivated Escherichia coli OP50 cultivation) were provided by the Fine Chemical Research and Development Center of Guizhou University (Guizhou, China). […] The nematicidal activity of the target compounds against four nematodes was determined using 48-well biochemical culture dishes. […]
mortality at 200 µg/mL: recorded values
Reported endpoint: mortality at 200 µg/mL

O=C(NCc1ccc(F)cc1F)c1nc(-c2ccc(Br)nc2)no1 :: 23.5%
O=C(NCCc1ncc(C(F)(F)F)cc1Cl)c1nc(-c2ncc(C(F)(F)F)cc2Cl)no1 :: 26.5%
O=C(NCCc1ccccn1)c1nc(-c2cccs2)no1 :: 21.7%

----------
# mortality at 50 µg/mL annotations
# System: C. elegans
# Measurement notes: microbe, parasite or virus in culture
# Condition info: Caenorhabditis elegans, 48 h, read-out: Corrected Mortality Rate ± SD (%) C. elegans
# Experimental: M. incognita (parasitic on tomato plants), A. besseyi (potato dextrose agar–Botrytis cinerea breeding), B. xylophilus (potato dextrose agar–Botrytis cinerea breeding), and C. elegans (nematode growth medium–inactivated Escherichia coli OP50 cultivation) were provided by the Fine Chemical Research and Development Center of Guizhou University (Guizhou, China). […] The nematicidal activity of the target compounds against four nematodes was determined using 48-well biochemical culture dishes. […]
Reported endpoint: mortality at 50 µg/mL

O=C(NCCc1ncc(C(F)(F)F)cc1Cl)c1nc(-c2ncc(C(F)(F)F)cc2Cl)no1 [Compound F22] :: 45.7%
O=C(Nc1ccc(Cl)cc1Cl)c1nc(-c2ccccc2)no1 [Compound F4] :: 71.4%
Cc1ccc(-c2noc(C(=O)Nc3ccc(Cl)cc3Cl)n2)cc1 [Compound F8] :: 47.6%
Cc1ccc(-c2noc(C(=O)NCCc3ncc(C(F)(F)F)cc3Cl)n2)cc1 [Compound F6] :: 100%
O=C(NCc1ccc(F)cc1F)c1nc(-c2ncc(C(F)(F)F)cc2Cl)no1 [Compound F23] :: 10.6%

----------
# Test system: C. elegans
# Measurement notes: microbe, parasite or virus in culture
# Condition info: Caenorhabditis elegans, 48 h, read-out: Corrected Mortality Rate ± SD (%) C. elegans
Classification field: enter Met for mortality at 50 µg/mL values not below 70%, Not met for values below it.

CCOP(=O)(SC(C)CC)N1CCSC1=O (centres unmarked) [Fosthiazate, fosthiazate, reference compound] :: Met
O=C(NCCc1ncc(C(F)(F)F)cc1Cl)c1nc(-c2ccc(Br)nc2)no1 [Compound F18] :: Not met
O=C(NCCc1ncc(C(F)(F)F)cc1Cl)c1nc(-c2ccccc2)no1 [Compound F2] :: Not met
O=C(NCCc1ccccn1)c1nc(-c2ccc(Br)nc2)no1 [Compound F17] :: Not met
